B1: Ankyrin-2, residues 3571 to 3650; numbered along this chain, Q01484 (parent)
chain: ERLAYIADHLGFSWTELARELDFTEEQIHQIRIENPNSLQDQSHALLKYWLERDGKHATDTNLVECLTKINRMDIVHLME

# Variants of: B1
# method: abundance fitness (aPCA) (normalised: wild type 0, dead -1); higher = more abundant; growth selection in yeast, the domain comes from the species named
# conditionsUsed: Homo sapiens
Kind request: treat -0.07 as inclusive, so abundance fitness at -0.07 or higher is true (1), anything lower is false (0).

Would you please look over these solved cases?
mutationSpec: L39K
groupLabel: false (0)
--
mutationSpec: W14G
groupLabel: false (0)
--
mutationSpec: E25A
groupLabel: true (1)

Q: Identify whether the reported abundance fitness of the following variant is -0.07 or greater: `I31R`
A: false (0)

From: the Human Domainome abundance scans (Beltran et al. 2025)
